assay: FRG1 promoter luciferase signal modulators, primary screen, FRG1 inhibition for FSHD, cell-based, C2C12 myotubes, firefly/Renilla luciferase, luminescence (AID 1084); settings: higher = more signal, called active from +8 up or from −8 down
The source made the active and inactive calls.
Measured Metric: z-score

According to the records, this compound `COCCOC(=O)N1C(=O)[C@@]2(c3cc(C#CCNC(N)=O)ccc31)[C@H](c1ccc(OCCO)cc1)N1[C@H](c3ccccc3)[C@H](c3ccccc3)OC(=O)[C@H]1[C@@H]2C(=O)Nc1nc2ccccc2s1` displays z-score of 3.98 (inactive)

According to the records, this compound `CCCCO[C@H]1C[C@H]2C(Br)=C[C@@]1(CO)C(=O)[C@]21CO1` displays z-score of 0.715 (inactive)

According to the records, this compound C=CCN(C(=O)C1N(c2ccc(CCO)cc2)C(=O)C2C(C(=O)O)C3C=CC21O3)C(C)(C)C (stereo not given) displays z-score of 0.4 (inactive)

According to the records, this compound O=C1NC(=O)C2C1C=CC(C(O)C=Cc1ccc([N+](=O)[O-])cc1)N2Nc1ccccn1 (stereo not given) displays z-score of 0.126 (inactive)

According to the records, this compound `C[C@]1(C(=O)NCCN2CCOCC2)c2ccccc2C(=O)N(Cc2ccccc2)[C@H]1c1ccc(CO)cc1` displays z-score of -0.351 (inactive)

According to the records, this compound C=CCC(OC(C)=O)[C@@H]1[C@@H](N(Cc2cc3ccccc3o2)C(=O)c2ccc(C)cc2)c2cc(OCCCO)ccc2N1C(=O)c1ccc2ccccc2n1 (stereo not given in full) displays z-score of -0.508 (inactive)

According to the records, this compound `COc1ccc(-c2ccccc2[C@@H]2N[C@H](C(=O)O)CC[C@H]2C)cc1` displays z-score of -0.438 (inactive)

According to the records, this compound `COc1cc(Cc2cc3c(c(CCc4ccccc4)n2)[Si](C(C)C)(C(C)C)OC3)cc(OC)c1OC` displays z-score of 0.311 (inactive)

According to the records, this compound `CO[C@@H]1COC(=O)CC=C[C@@H](C)[C@H](OC)COC(=O)CC=C[C@H]1C` displays z-score of 0.211 (inactive)

According to the records, this compound `COCCOC(=O)N1C(=O)[C@@]2(c3cc(C#CCNC(N)=O)ccc31)[C@H](C(=O)N1CCCCCCC1)[C@H]1C(=O)O[C@H](c3ccccc3)[C@H](c3ccccc3)N1[C@@H]2c1ccccc1OCCO` displays z-score of -0.556 (inactive)

According to the records, this compound `COCCOC(=O)N1C(=O)[C@@]2(c3cc(C#CC4=CCCCC4)ccc31)[C@H](C(=O)NC[C@H](O)c1ccccc1)[C@H]1C(=O)O[C@H](c3ccccc3)[C@H](c3ccccc3)N1[C@@H]2c1ccccc1OCCO` displays z-score of -0.0011 (inactive)

According to the records, this compound `CCC(=O)[C@]12O[C@@]3([C@@H]4C(=O)OCC[C@@H]41)N(Cc1ccccc1)C(C)=C(C(=O)OC)[C@@H](c1ccccc1)N3C2=O` displays z-score of -0.0144 (inactive)

According to the records, this compound CN1CCC(CCCO)=CC1C1CC1 (stereo not given) displays z-score of -0.901 (inactive)

According to the records, this compound `CCC(=O)[C@]12O[C@@]3([C@@H]4C(=O)OCC[C@@H]41)N(CC)C(C)=C(C(=O)OC)[C@@H](c1ccccc1)N3C2=O` displays z-score of -0.13 (inactive)

According to the records, this compound `CCC#CCN(Cc1ccccc1Br)[C@H](/C=C/c1ccccc1)[C@@H](O)Cc1ccccc1` displays z-score of -0.227 (inactive)
